Each entry below carries its recorded inhibition at 13 µM.
Target: S. pneumoniae Topoisomerase IV ATPase (ParE) (Streptococcus pneumoniae serotype 4, UniProt Q59961)
Sequence (Q59961 whole entry): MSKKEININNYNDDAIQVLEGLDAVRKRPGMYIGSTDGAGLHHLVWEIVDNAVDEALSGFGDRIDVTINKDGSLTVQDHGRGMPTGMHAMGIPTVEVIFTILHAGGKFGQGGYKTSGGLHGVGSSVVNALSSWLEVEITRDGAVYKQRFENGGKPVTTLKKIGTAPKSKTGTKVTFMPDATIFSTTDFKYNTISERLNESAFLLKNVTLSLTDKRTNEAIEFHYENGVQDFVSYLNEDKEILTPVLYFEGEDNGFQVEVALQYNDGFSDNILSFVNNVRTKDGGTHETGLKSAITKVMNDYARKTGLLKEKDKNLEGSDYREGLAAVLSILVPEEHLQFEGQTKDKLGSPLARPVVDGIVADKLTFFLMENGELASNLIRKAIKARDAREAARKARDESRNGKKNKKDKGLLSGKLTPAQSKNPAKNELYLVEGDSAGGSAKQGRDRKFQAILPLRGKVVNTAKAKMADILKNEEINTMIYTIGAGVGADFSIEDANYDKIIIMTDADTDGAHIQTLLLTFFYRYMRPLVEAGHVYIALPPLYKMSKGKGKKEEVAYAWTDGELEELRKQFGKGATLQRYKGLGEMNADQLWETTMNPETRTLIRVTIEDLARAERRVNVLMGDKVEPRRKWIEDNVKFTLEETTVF
Assay: S. pneumoniae Topoisomerase IV ATPase inhibition
Type: biochemical
Details: values marked * are an average of two or more data points, read-out: % Inh (13 μM) of S. pneumoniae Topoisomerase IV ATPase
Respond with the bare value in %.

compound: COc1ncc(-c2cnc(Nc3cc(C)cc(C)c3)nc2-n2nc(C(F)(F)F)cc2C)cc1C(=O)NS(=O)(=O)C(C)C
measValue: 100

compound: COCCN1CCN(c2nc(Nc3ccc(F)c(Cl)c3)ncc2-c2cncc(C(=O)O)c2)CC1
measValue: 69.4

compound: CS(=O)(=O)CCOc1ncc(-c2cnc(Nc3ccc(F)c(Cl)c3)nc2-n2ccc(C(F)(F)F)n2)cc1C(=O)O
measValue: 100

compound: CONC(=O)c1cncc(-c2cnc(Nc3cc(OC)cc(OC)c3)nc2-n2ccc(C(F)(F)F)n2)c1
measValue: 100

compound: COc1cc(F)cc(Nc2ncc(-c3cncc(C(=O)O)c3)c(N3CCOCC3)n2)c1
measValue: 94

compound: COc1cc(Nc2ncc(-c3cccnc3)c(-n3nc(C(F)(F)F)cc3C)n2)cc(C(F)(F)F)c1
measValue: 100

compound: COc1ccc(-c2cnc(Nc3ccc(F)c(Cl)c3)nc2-n2ccc(C(F)(F)F)n2)cc1C(=O)O
measValue: 100

compound: Cc1cc(C(F)(F)F)nn1-c1nc(Nc2ccc(F)c(Cl)c2)ncc1-c1cncc(C(=O)NCCN2CCOCC2)c1
measValue: 100

compound: Cc1ccc(Nc2ncc(-c3ccc(C(=O)O)s3)c(NCCCN(C)C)n2)cc1C#N
measValue: 64.4

compound: CONC(=O)/C=C/c1cccc(-c2cnc(Nc3ccc(F)c(Cl)c3)nc2N2CCOCC2)c1
measValue: 87.2

State its inhibition at 13 µM for this compound: "N#Cc1cccc(Nc2ncc(-c3cccc(/C=C/C(=O)O)c3)c(-n3ccc(C(F)(F)F)n3)n2)c1"
97

* * *

Target: UniProtKB Q59961
Assay: S. pneumoniae Topoisomerase IV ATPase inhibition
Assay type: biochemical
Conditions: values marked * are an average of two or more data points, read-out: % Inh (13 μM) of S. pneumoniae Topoisomerase IV ATPase
The following compounds are listed with their measured inhibition at 13 µM values.
Give the quantity in %, number only.

Example entries begin here.
inputSmiles: O=C(O)/C=C/c1cccc(-c2cnc(Nc3ccc(F)c(Cl)c3)nc2-n2cnc(Cl)c2Cl)c1
systemName: UniProtKB Q59961
unitsText: %
measValue: 59.8

inputSmiles: COc1cc(Cl)cc(Nc2ncc(-c3cncc(C(=O)O)c3)c(-n3ccc(C(F)(F)F)n3)n2)c1
systemName: UniProtKB Q59961
unitsText: %
measValue: 100

inputSmiles: O=C(O)c1cncc(-c2cnc(Nc3ccc(F)c(Cl)c3)nc2-n2cc(-c3ccncc3)cn2)c1
systemName: UniProtKB Q59961
unitsText: %
measValue: 101

inputSmiles: N#Cc1cc(Cl)cc(Nc2ncc(-c3cccc(/C=C/C(=O)O)c3)c(N3CCOCC3)n2)c1
systemName: UniProtKB Q59961
unitsText: %
measValue: 100

inputSmiles: CCOC(=O)/C=C/c1cccc(-c2cnc(Nc3ccc(F)c(Cl)c3)nc2NCc2cnn(C)c2)c1
systemName: UniProtKB Q59961
unitsText: %
measValue: 66.4

inputSmiles: COc1cc(Nc2ncc(-c3cc(C(=O)O)cn(C)c3=O)c(-n3ccc(C(F)(F)F)n3)n2)cc(OC)c1
systemName: UniProtKB Q59961
unitsText: %
measValue: 100

Now for a further compound.
Give inhibition at 13 µM for "COc1cc(Nc2ncc(-c3cnc(SC)c(C(=O)NS(C)(=O)=O)c3)c(-n3nc(C(F)(F)F)cc3C)n2)cc(OC)c1"
94
